- target of assay: CDK2 (UniProt P24941)
- test: Enzyme Assay
- stated conditions: concentration not given here
Can you tell me inhibition for the items I'm about to list?
# number then unit; no other words

In the examples that follow, each entry is paired with its recorded inhibition.
In plain terms, COCCN(C)S(=O)(=O)c1ccc(Nc2nc(N)c(C(=O)c3c(F)cccc3F)s2)cc1 has a documented inhibition of 4%

// C=CCN1CCN(S(=O)(=O)c2ccc(Nc3nc(N)c(C(=O)c4c(F)cccc4F)s3)cc2)CC1 : inhibition value = 6%

// sample CN(CCC1OCCO1)S(=O)(=O)c1ccc(Nc2nc(N)c(C(=O)c3c(F)cccc3F)s2)cc1 , its inhibition was 20%

The reported value for CN(CC(O)CO)S(=O)(=O)c1ccc(Nc2nc(N)c(C(=O)c3c(F)cccc3F)s2)cc1 (stereo unspecified) in terms of inhibition is 15%

I need inhibition for every entry listed below, if you could help.
1. CN(Cc1cccnc1)S(=O)(=O)c1ccc(Nc2nc(N)c(C(=O)c3c(F)cccc3F)s2)cc1
2. CN(CCc1ccccn1)S(=O)(=O)c1ccc(Nc2nc(N)c(C(=O)c3c(F)cccc3F)s2)cc1
3. COC(=O)CN(C)S(=O)(=O)c1ccc(Nc2nc(N)c(C(=O)c3c(F)cccc3F)s2)cc1
4. Nc1nc(Nc2ccc(S(=O)(=O)N3CCC(CCO)CC3)cc2)sc1C(=O)c1c(F)cccc1F
5. CCN(CC)CCCN(C)S(=O)(=O)c1ccc(Nc2nc(N)c(C(=O)c3c(F)cccc3F)s2)cc1

12%
16%
18%
21%
21%

###

For reference, pKi measured on UniProt:P24941:
Answers are plain numbers, as −log10 of the molar value.

Here's what some known entries look like.
Reading of pKi for CC(C)(O)CCCCNS(=O)(=O)c1ccc(Nc2nc(N)c(C(=O)c3c(F)cccc3F)s2)cc1 with UniProt:P24941: 9.32

Record Nc1nc(Nc2ccc(S(=O)(=O)NCC3CCNCC3)cc2)sc1C(=O)c1c(F)cccc1F ; system UniProt:P24941; pKi = 7.89

Then there is this compound:
# value of pKi, UniProt:P24941, item Nc1nc(Nc2ccc(S(=O)(=O)NCCCc3ccccc3)cc2)sc1C(=O)c1c(F)cccc1F = 8.44

###

- target of assay: CDK2 (UniProt P24941)
- test: Enzyme Assay
- stated conditions: concentration not given here
measured attribute: inhibition (%)
One number for each entry, in %.

Solved cases below.
Briefly, inhibition measured for CN(CCc1ccccc1)S(=O)(=O)c1ccc(Nc2nc(N)c(C(=O)c3c(F)cccc3F)s2)cc1 : 9

Reported inhibition ( Nc1nc(Nc2ccc(S(=O)(=O)N(CCO)CCO)cc2)sc1C(=O)c1c(F)cccc1F ) = -1

Required: inhibition, one value per compound below.
1. Nc1nc(Nc2ccc(S(=O)(=O)N3CCN(c4ccc(F)cc4)CC3)cc2)sc1C(=O)c1c(F)cccc1F
2. CCN(CCO)S(=O)(=O)c1ccc(Nc2nc(N)c(C(=O)c3c(F)cccc3F)s2)cc1
3. CCN(CC)CCN(C)S(=O)(=O)c1ccc(Nc2nc(N)c(C(=O)c3c(F)cccc3F)s2)cc1

37
24
27

Batch lookup, inhibition per entry.
1. Nc1nc(Nc2ccc(S(=O)(=O)N3CCSCC3)cc2)sc1C(=O)c1c(F)cccc1F
2. CN1CCC(N(C)S(=O)(=O)c2ccc(Nc3nc(N)c(C(=O)c4c(F)cccc4F)s3)cc2)C1 (configuration not stated)
3. Nc1nc(Nc2ccc(S(=O)(=O)N3CCOCC3)cc2)sc1C(=O)c1c(F)cccc1F
4. CN(CCO)S(=O)(=O)c1ccc(Nc2nc(N)c(C(=O)c3c(F)cccc3F)s2)cc1
5. CN1CCC(N(C)S(=O)(=O)c2ccc(Nc3nc(N)c(C(=O)c4c(F)cccc4F)s3)cc2)CC1
6. CN(CCC#N)S(=O)(=O)c1ccc(Nc2nc(N)c(C(=O)c3c(F)cccc3F)s2)cc1

1: 23; 2: 22; 3: 27; 4: 28; 5: 9; 6: 27

List reported inhibition for each of these compounds:
1. CN(CCCCCCO)S(=O)(=O)c1ccc(Nc2nc(N)c(C(=O)c3c(F)cccc3F)s2)cc1
2. COCCN(CCOC)S(=O)(=O)c1ccc(Nc2nc(N)c(C(=O)c3c(F)cccc3F)s2)cc1
3. CN(CCc1ccncc1)S(=O)(=O)c1ccc(Nc2nc(N)c(C(=O)c3c(F)cccc3F)s2)cc1
4. CN1CCN(S(=O)(=O)c2ccc(Nc3nc(N)c(C(=O)c4c(F)cccc4F)s3)cc2)CC1
5. CN(C)CCN(C)S(=O)(=O)c1ccc(Nc2nc(N)c(C(=O)c3c(F)cccc3F)s2)cc1
6. Nc1nc(Nc2ccc(S(=O)(=O)N3CCN(CCN4CCOCC4)CC3)cc2)sc1C(=O)c1c(F)cccc1F

1: 28; 2: 8; 3: 19; 4: 18; 5: 26; 6: 11

For every item below, please supply its inhibition.
1. Nc1nc(Nc2ccc(S(=O)(=O)N3CCN(CC(=O)N4CCCC4)CC3)cc2)sc1C(=O)c1c(F)cccc1F
2. N#CCCN(C1CC1)S(=O)(=O)c1ccc(Nc2nc(N)c(C(=O)c3c(F)cccc3F)s2)cc1
3. NC(=O)C1CCN(S(=O)(=O)c2ccc(Nc3nc(N)c(C(=O)c4c(F)cccc4F)s3)cc2)CC1
4. Nc1nc(Nc2ccc(S(=O)(=O)N3CCN(CCOCCO)CC3)cc2)sc1C(=O)c1c(F)cccc1F
5. Nc1nc(Nc2ccc(S(=O)(=O)N3CCCC(CO)C3)cc2)sc1C(=O)c1c(F)cccc1F (configuration not stated)

[14, 8, 40, -1, 30]
